test system: Wnt activity (Sp5-Luc reporter, human Sp5 promoter with eight TCF/LEF binding sites) in SW480 colon carcinoma cells; test: Screening assay for Wnt activity: Sp5-Luc reporter gene assay in SW480 cells; assay type: cell-based; settings: 10 μM, read-out: percent inhibition at 10 μM (given for EC50 of >10 μM)
Assign class by inhibition at 10 µM: not lower than 10% means label 1; lower than 10% means label 0.

[[record]]
smiles = "Cc1cnc(-c2ccc3[nH]nc(-c4nc5c(-c6cccc(F)c6)cncc5[nH]4)c3n2)s1"
class = "label 1"


Kindly determine if inhibition at 10 µM recorded for CCC(=O)Nc1cncc(-c2ccc3[nH]nc(-c4nc5c(N6CCCCC6)cncc5[nH]4)c3n2)c1 is above or exactly 10%.
label 0

Kindly determine if inhibition at 10 µM recorded for CN(C)CC(=O)Nc1cncc(-c2ccc3[nH]nc(-c4nc5c(-c6cccc(F)c6)cncc5[nH]4)c3n2)c1 is above or exactly 10%.
label 1

Kindly determine if inhibition at 10 µM recorded for Cc1ccncc1-c1ccc2[nH]nc(-c3nc4c(-c5ccncc5)cncc4[nH]3)c2n1 is above or exactly 10%.
label 1
